FYI, the data here is from ChEMBL document CHEMBL3259559.

# tgt: 72 kDa type IV collagenase (Homo sapiens, UniProt P08253)
# Sequence (P08253 whole entry): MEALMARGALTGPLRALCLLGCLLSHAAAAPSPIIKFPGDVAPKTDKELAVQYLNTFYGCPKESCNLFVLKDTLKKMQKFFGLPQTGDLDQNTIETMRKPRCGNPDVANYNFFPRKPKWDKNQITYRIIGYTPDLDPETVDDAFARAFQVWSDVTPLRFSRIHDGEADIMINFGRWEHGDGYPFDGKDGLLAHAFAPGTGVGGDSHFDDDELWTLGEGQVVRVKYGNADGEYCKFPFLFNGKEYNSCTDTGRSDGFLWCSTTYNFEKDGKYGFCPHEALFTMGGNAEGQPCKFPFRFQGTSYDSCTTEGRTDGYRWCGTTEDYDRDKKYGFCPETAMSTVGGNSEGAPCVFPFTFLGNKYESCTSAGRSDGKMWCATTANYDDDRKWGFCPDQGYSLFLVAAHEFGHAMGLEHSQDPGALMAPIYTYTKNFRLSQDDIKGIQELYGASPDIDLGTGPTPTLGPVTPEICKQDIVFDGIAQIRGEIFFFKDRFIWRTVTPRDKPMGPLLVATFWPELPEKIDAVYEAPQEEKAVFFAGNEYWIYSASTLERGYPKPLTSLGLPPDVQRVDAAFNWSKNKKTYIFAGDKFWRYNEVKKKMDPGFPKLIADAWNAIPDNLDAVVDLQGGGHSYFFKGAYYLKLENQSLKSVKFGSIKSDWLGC
# assay method text: Inhibition of MMP2 (unknown origin) using succinylated gelatin as substrate preincubated for 10 mins before substrate addition measured after 30 mins by spectrophotometry
measured metric: IC50 (nM)

Use these answered entries as a reference point.
{"input smiles": "CC[C@H](C)[C@H](N)C(=O)NCC(=O)N[C@H]1C[C@@H](C(=O)NO)N(S(=O)(=O)c2ccc(C)cc2)C1.Cl", "unit descriptor": "nM", "value": 2050}
{"input smiles": "COc1ccc(S(=O)(=O)N2C[C@@H](NC(=O)CNC(=O)[C@@H](N)Cc3ccccc3)C[C@H]2C(=O)NO)cc1.Cl", "unit descriptor": "nM", "value": 720}
{"input smiles": "CSCC[C@H](N)C(=O)NCC(=O)N[C@H]1C[C@@H](C(=O)NO)N(S(=O)(=O)c2ccccc2)C1.Cl", "unit descriptor": "nM", "value": 2320}
{"input smiles": "Cc1ccc(S(=O)(=O)N2C[C@@H](NC(=O)CNC(=O)[C@@H](N)CC(C)C)C[C@H]2C(=O)NO)cc1.Cl", "unit descriptor": "nM", "value": 870}

[A] COc1ccc(S(=O)(=O)N2C[C@@H](NC(=O)CNC(=O)[C@@H](N)CCSC)C[C@H]2C(=O)NO)cc1.Cl
[B] CC(C)[C@H](N)C(=O)NCC(=O)N[C@H]1C[C@@H](C(=O)NO)N(S(=O)(=O)c2ccccc2)C1.Cl
Req: Compare the recorded IC50 of A and B ; state which is larger. To answer, give the label that identifies your chosen option.
Resp: B
(B: 5760 nM, A: 760 nM)

[I] CC[C@H](C)[C@H](N)C(=O)NCC(=O)N[C@H]1C[C@@H](C(=O)NO)N(S(=O)(=O)c2ccc(OC)cc2)C1.Cl
[II] CC[C@H](C)[C@H](N)C(=O)NCC(=O)N[C@H]1C[C@@H](C(=O)NO)N(S(=O)(=O)c2ccc(Cl)cc2)C1.Cl
Req: Which record would sort first by descending IC50, I or II ? When you have decided, please share the label of that item.
Resp: I
(I: 1940 nM, II: 1280 nM)
